- Experimental System: Tyrosine-protein kinase JAK1 (Homo sapiens)
- Sequence (P23458 whole entry, the tested form may be a part): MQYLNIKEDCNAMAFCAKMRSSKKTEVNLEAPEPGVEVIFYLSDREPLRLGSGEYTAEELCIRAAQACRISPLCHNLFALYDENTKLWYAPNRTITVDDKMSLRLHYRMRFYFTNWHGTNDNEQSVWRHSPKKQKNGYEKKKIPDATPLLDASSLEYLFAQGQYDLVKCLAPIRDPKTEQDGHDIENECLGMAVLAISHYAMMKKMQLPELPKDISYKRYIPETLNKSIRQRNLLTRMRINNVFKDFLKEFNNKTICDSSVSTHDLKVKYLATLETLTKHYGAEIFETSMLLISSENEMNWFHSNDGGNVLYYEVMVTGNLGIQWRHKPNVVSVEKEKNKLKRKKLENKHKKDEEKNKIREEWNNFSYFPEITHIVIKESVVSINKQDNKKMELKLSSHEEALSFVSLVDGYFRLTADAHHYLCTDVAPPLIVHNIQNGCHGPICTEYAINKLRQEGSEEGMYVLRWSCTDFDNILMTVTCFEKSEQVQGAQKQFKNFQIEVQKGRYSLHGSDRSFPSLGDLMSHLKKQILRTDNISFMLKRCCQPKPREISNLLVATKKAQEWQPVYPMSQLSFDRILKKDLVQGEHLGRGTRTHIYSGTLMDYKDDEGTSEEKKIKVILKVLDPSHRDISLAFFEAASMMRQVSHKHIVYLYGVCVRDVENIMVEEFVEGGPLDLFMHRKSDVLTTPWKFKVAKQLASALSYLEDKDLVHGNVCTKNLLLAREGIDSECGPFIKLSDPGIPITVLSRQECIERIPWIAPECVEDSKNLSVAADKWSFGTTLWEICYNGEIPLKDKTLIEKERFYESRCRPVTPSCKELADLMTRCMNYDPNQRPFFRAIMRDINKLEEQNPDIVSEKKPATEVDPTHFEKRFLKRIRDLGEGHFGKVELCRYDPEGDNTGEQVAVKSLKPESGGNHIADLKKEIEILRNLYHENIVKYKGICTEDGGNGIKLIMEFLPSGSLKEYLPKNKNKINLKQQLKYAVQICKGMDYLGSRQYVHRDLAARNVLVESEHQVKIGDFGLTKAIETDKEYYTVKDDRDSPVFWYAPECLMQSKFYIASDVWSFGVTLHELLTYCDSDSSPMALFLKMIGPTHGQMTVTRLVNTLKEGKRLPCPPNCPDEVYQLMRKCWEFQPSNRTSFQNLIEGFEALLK
- Assay Protocol: Inhibition of human recombinant GST-tagged JAK1 catalytic domain (866 to 1154 residues) expressed in baculovirus expression system by Z'-lyte assay
Measured Endpoint: IC50

[[record]]
structure_smiles_string = "COc1cc(Nc2ncc(C)c(Nc3ccc4oc(=O)[nH]c4c3)n2)cc(C)c1F"
experimental_system = "Tyrosine-protein kinase JAK1 (Homo sapiens)"
measured_endpoint = "IC50"
data_value = "2.1 nM"


* * *

- Experimental System: JAK3/JAK1 (Homo sapiens, UniProt P23458+P52333)
- Sequence (P52333 whole entry): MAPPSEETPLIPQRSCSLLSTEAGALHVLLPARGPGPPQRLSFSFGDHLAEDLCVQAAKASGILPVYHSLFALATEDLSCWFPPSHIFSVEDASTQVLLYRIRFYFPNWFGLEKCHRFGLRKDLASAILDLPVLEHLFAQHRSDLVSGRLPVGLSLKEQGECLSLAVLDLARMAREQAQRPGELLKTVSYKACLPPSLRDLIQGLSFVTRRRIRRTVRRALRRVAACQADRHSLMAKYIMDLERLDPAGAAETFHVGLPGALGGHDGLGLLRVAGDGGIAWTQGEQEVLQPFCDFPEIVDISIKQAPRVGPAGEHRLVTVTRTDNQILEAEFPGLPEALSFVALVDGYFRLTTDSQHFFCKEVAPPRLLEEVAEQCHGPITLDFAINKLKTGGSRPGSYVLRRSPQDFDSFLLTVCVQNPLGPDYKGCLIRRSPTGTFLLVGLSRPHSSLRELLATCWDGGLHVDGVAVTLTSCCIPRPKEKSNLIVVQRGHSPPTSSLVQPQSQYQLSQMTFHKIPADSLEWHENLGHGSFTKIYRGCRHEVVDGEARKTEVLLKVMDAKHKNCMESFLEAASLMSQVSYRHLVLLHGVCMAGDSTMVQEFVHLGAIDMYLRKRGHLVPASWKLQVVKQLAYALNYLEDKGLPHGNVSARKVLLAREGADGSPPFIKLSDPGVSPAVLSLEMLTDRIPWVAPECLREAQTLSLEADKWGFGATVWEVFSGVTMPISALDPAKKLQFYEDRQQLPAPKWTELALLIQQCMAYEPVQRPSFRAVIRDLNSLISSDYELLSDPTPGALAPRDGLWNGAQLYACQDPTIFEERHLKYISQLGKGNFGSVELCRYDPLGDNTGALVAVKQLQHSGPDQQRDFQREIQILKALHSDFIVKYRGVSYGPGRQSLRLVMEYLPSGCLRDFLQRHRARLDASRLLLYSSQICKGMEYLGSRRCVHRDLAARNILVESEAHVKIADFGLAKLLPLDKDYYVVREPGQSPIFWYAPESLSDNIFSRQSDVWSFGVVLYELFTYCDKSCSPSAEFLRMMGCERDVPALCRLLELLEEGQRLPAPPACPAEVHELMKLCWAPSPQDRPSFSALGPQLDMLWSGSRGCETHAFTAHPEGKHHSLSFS
- Sequence (P23458 whole entry): as the sequence (P23458 whole entry, the tested form may be a part) above
- Assay Protocol: Inhibition of JAK1/JAK3 in human primary T-cells assessed as reduction of IL-2 stimulated STAT5 phosphorylation preincubated for 1 hr followed by IL-2 stimulation for 15 mins by FACS method
- Assay type: cell-based, T-cell
Parameter IC50: see the listing below.
Measured Endpoint: IC50 (µM)

[[record]]
molecule = "COc1cc(Nc2ncc(C)c(Nc3ccc4oc(=O)[nH]c4c3)n2)cc(C)c1F [IFIDANCITINIB]"
data_value = 0.02

[[record]]
molecule = "COc1cc(Nc2ncc(C)c(Nc3ccc4oc(=O)[nH]c4c3)n2)cc(OC)c1OC"
data_value = 0.026

[[record]]
molecule = "Cc1cnc(Nc2ccc(N3CCOCC3)nc2)nc1Nc1ccc2oc(=O)[nH]c2c1"
data_value = 0.022

[[record]]
molecule = "Cc1cnc(Nc2ccc(N3CCN(C)CC3)nc2)nc1Nc1ccc2oc(=O)[nH]c2c1"
data_value = 0.02

